- target of assay: T1, recombinant human MOG protein (human, UniProt Q16653 30-154, limits assumed)
- T1 construct: Bought recombinant protein; also called HMOG
- T1 sequence (looked up): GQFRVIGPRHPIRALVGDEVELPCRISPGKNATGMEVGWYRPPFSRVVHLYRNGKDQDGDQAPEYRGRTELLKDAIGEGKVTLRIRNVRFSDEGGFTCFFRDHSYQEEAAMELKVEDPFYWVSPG
- measurement protocol: phage-scFv ELISA on coated recombinant human MOG (0.5 µg/well), anti-M13 HRP, OD450 over BSA background
reported property: ratio OD on target/OD bdf (ratio)
Hi! Could you send only the number? It should be in ratio, unit omitted.

1. anti-MOG MO4H-65 antibody (scFv, V domains shown) VH: EVQLVQPGAEVKKPGASVKVSCKASDYTFTSYGISWVRQAPGQGLEWMGWISAYNGNTYYARKFGRVTMTTDTSTTTAYMELRRLRSEDTAVYYCARSGVDNIDYLFDYWGQGTLVTVSS VL: EIVMTQSPGTMSVSPGESATLSCRASQSVSSNLAWYQQKPGQAPRLLIYGASTRATGLPARFSGSGSRTDFTLTISSLQPEDFATYYCQQTTSFPLTFSGGTKLEIT | 2.44
2. anti-MOG MO3I-63 antibody (scFv, V domains shown) VH: QVQLVQSGAEVKTPGASVKISCKASGYAFTSYAMHWVRAPGQGLEWMGWINAANANTKYSQRFQGRVTITRDTSASTAYMELNSLRSEDTAVYYCASSEDISRSNYYNYYMDVWGKGTTVTVSS VL: DIVMTQSPSSLSASVGDRVTITCRASQTITTSLAWFQHRPGKAPKLLIYSASSLQSGVPSRFSGSGSGTDFTLTISSLQPEDFATYSCQQTYSAPPTFGGGTKVEIK | 2.66
3. anti-MOG MO4H-46 antibody (scFv, V domains shown) VH: QVQLVQSGAEVKKPGASVKVSCKASGYTFTSYAMHWVRQAPGQRLEWMGWINAGNGNAKYSQKFQGRVTLTRDTSASTAYMKLSSLRSEDTAVYYCARGAPTYRYFDLWGRGTLVTVSS VL: QSVLTQPPSVSAAPGQKVTISCSGSSSNIGNNYVAWYQQLPGTAPKLLIYDNNKRPSGIPDRFSGSKSGTSATLGITGLQTGDEADYYCGTSDSSLSAVVFGGGTKLTVL | 6.57

Ask | Given anti-MOG MO4H-04 antibody (scFv, V domains shown) VH: EVQLVQSGAEVKKPVASVKVSCKASGYTFTSYGISWVRQAPGQGLEWMGWISAYNGNTNYAQKLQGRVTMTTDTSTSTAYMELRSLRSDDTAVYYCARNMGCSSTSCFVSWFDPWGQGTLVTVSS VL: QSALTQPPSASGSPGQSVTISCTGTHSDVGSFDSVSWYQQHPDKAPKLIIYDVNKRPAGVPHRFSGSKSGNTASLTVSGLQSEDEADYYCNSYAGVDNFVFGTGTKVTVL , state its recorded ratio OD on target/OD bdf.
Reply | 9.36

Ask | Given anti-MOG MO3J-12 antibody (scFv, V domains shown) VH: EVQLLESGGGLVQPGGSLRLSCAASGFTFSTYWMHWVRQAPGRGLVWVSRINTDGSSTDYADSVKGRFTISRDNAKNTLYLQMNSLRAEDTAVYSCARGGQLVAAANDNWLDPWGQGTLVTVSS VL: AIQLTQSPSSLSASAGDRVTITCRASQSINNYLNWYQQKPGKAPKVLIYGASNLQSGVPSRFSGSGSGTDFTLTISSLQPEDFATYYCQQSYSTPRTFGQGTKVEIK , state its recorded ratio OD on target/OD bdf.
Reply | 16.4
